Quick reference for pIC50 among some compounds
Study system: PARP7 (Homo sapiens (Human), UniProt Q7Z3E1)
Sequence (Q7Z3E1 whole entry): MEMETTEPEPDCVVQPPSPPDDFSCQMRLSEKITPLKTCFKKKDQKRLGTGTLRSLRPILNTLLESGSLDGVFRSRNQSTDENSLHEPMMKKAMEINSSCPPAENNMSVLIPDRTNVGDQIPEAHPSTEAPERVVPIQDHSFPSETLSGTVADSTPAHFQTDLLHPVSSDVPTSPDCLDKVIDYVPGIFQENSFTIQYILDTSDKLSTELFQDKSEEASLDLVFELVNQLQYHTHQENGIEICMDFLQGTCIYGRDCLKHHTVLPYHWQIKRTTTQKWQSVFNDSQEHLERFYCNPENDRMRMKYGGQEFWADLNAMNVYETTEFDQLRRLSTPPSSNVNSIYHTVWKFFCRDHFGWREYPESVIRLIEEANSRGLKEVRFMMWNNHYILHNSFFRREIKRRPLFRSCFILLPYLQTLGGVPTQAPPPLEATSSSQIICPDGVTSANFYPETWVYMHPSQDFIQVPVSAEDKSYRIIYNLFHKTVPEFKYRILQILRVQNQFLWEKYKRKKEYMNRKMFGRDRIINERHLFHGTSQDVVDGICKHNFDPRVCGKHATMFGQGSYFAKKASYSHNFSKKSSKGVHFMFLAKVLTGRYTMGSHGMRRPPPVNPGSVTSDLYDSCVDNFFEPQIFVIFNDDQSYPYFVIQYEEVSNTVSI
Experimental protocol: Enzymatic assay for inhibition of PARP7: TR-FRET displacement of biotinylated Probe A from the TIPARP active site
Type: binding
Experimental parameters: Table A-1
pIC50: −log10 of the molar value.
Test readout: pIC50

>>> print(df.to_string())
                                   compound  recorded_value
0  CCOc1cccc2c1CN(c1cn[nH]c(=O)c1C(F)(F)F)C2          > 7.00
1  COC[C@H](COCCC(=O)N1CCN(c2ccc(C#N)cn2)CC1)Nc1cn[nH]c(=O)c1C(F)(F)F (single isomer, unassigned) [Example 518A]          ≤ 6.00
2  O=C(c1cccc(OCC2c3ccccc3CN2c2cn[nH]c(=O)c2C(F)(F)F)c1)N1CCN(c2ncc(C(F)(F)F)cn2)CC1 (centres unmarked)          > 7.00
3  Cc1ccc(N2CCN(C(=O)CCOC[C@H](C)Nc3cn[nH]c(=O)c3C(F)(F)F)CC2)nc1          > 7.00
4  COC[C@H](COCCC(=O)N1CCN(c2ccc(C#N)cn2)CC1)Oc1cn[nH]c(=O)c1C(F)(F)F (single isomer, unassigned) [Example 532 Isomer B]    6.00 to 7.00
5  O=c1[nH]ncc(N2Cc3cccc(OCCN4CCCCC4)c3C2)c1Cl          ≤ 6.00
6  CC(=O)N(C)CC1c2ccccc2CN1c1cn[nH]c(=O)c1C(F)(F)F (centres unmarked)          ≤ 6.00
7  NC1CCCN(c2cccc3c2CN(c2cn[nH]c(=O)c2C(F)(F)F)C3)C1 (centres unmarked)    6.00 to 7.00

---

Study system: PARP7 (Homo sapiens (Human))
Experimental protocol: Enzymatic assay for inhibition of PARP7: TR-FRET displacement of biotinylated Probe A from the TIPARP active site
Experimental parameters: Table A-1
Quick reference for IC50 among some compounds
Test readout: IC50

Compound	Test readout	Recorded value
CNCCOc1cccc2c1CN(c1cn[nH]c(=O)c1C(F)(F)F)C2 [Example 217]	IC50	100 to 1000 nM
COc1ccnc2c1CN(c1cn[nH]c(=O)c1C(F)(F)F)C2 [Example 337]	IC50	< 100 nM
Cc1c(N2CCC[C@H]2COCCC(=O)N2CCN(c3ccc(C#N)cn3)CC2)cn[nH]c1=O [Example 480]	IC50	< 100 nM
O=c1[nH]ncc(N2Cc3cccc(OC4CCCOC4)c3C2)c1C(F)(F)F (stereo not shown) [Example 268]	IC50	< 100 nM
O=c1[nH]ncc(N2Cc3cccnc3C2)c1Cl [Example 154]	IC50	100 to 1000 nM
CC(=O)N1CCN(C(=O)CCOC[C@H]2c3ccccc3CN2c2cn[nH]c(=O)c2C(F)(F)F)CC1 [Example 420]	IC50	≥ 1000 nM
O=C(c1cncc(OC[C@H]2c3ccccc3CN2c2cn[nH]c(=O)c2C(F)(F)F)c1)N1CCN(c2ccc(F)cn2)CC1 [Example 387]	IC50	≥ 1000 nM
O=c1[nH]ncc(N2Cc3cccc(N4CCC(O)C4)c3C2)c1C(F)(F)F (stereo not shown) [Example 305]	IC50	< 100 nM
N#Cc1ccc(N2CCN(C(=O)CCCOCC3c4ncccc4CN3c3cn[nH]c(=O)c3C(F)(F)F)CC2)nc1 (stereo not shown) [Example 411]	IC50	< 100 nM
N#Cc1ccc(N2CCN(C(=O)CCOC[C@@H]3c4ncccc4CN3c3cn[nH]c(=O)c3C(F)(F)F)CC2)nc1 [Example 137A]	IC50	< 100 nM
N#Cc1cnc(N2CCN(C(=O)CCOC[C@@H]3CCCN3c3cn[nH]c(=O)c3C(F)(F)F)CC2)nc1 [Example 461]	IC50	< 100 nM
O=c1[nH]ncc(N2Cc3ccc(F)cc3C2)c1C(F)(F)F [Example 169]	IC50	< 100 nM
O=C(C[C@@H]1CC[C@H](COc2cn[nH]c(=O)c2C(F)(F)F)O1)N1CCN(c2ccc(C(F)(F)F)cn2)CC1 (single isomer, unassigned) [Example 545 Isomer D]	IC50	< 100 nM
CN(C)C1CCN(c2cccc3c2CN(c2cn[nH]c(=O)c2C(F)(F)F)C3)CC1 [Example 281]	IC50	100 to 1000 nM
C[C@@H](COCCC(=O)N1CC[C@H]2[C@@H]1CCN2c1ncc(C(F)(F)F)cn1)Nc1cn[nH]c(=O)c1C(F)(F)F [Example 689]	IC50	100 to 1000 nM
O=C(C[C@H]1CC[C@@H]([C@@H]2CCCN2c2cn[nH]c(=O)c2C(F)(F)F)O1)N1CCN(c2ncc(Cl)cn2)CC1 [Example 147B]	IC50	< 100 nM

---

Study system: PARP7 (Homo sapiens (Human), UniProt Q7Z3E1)
Experimental protocol: Enzymatic assay for inhibition of PARP7: TR-FRET displacement of biotinylated Probe A from the TIPARP active site
Experimental parameters: Table A-1
Quick reference for IC50 among some compounds

Compound	Study system	IC50
N#Cc1ccc(N2CCN(C(=O)CCOC[C@@H](CO)Oc3cn[nH]c(=O)c3C(F)(F)F)CC2)nc1 (single isomer, unassigned) [Example 573 Isomer B]	PARP7 (Homo sapiens (Human), UniProt Q7Z3E1)	< 100 nM
N#Cc1ccc(N2CCN(C(=O)CCOC[C@H]3c4ccccc4CN3c3cn[nH]c(=O)c3Cl)CC2)nc1	PARP7 (Homo sapiens (Human), UniProt Q7Z3E1)	100 to 1000 nM
NC1CCN(c2cccc3c2CN(c2cn[nH]c(=O)c2C(F)(F)F)C3)CC1	PARP7 (Homo sapiens (Human), UniProt Q7Z3E1)	100 to 1000 nM
N#Cc1ccc(OC2CCC(NC(=O)COC[C@@H]3CCCN3c3cn[nH]c(=O)c3C(F)(F)F)CC2)nc1 (stereo partly shown)	PARP7 (Homo sapiens (Human), UniProt Q7Z3E1)	< 100 nM
N#Cc1ccc(N2CCN(C(=O)[C@H]3CC[C@H](OC[C@@H]4CCCN4c4cn[nH]c(=O)c4C(F)(F)F)CC3)CC2)nc1 (single isomer, unassigned; isomer a) [Example 82 Isomer A]	PARP7 (Homo sapiens (Human), UniProt Q7Z3E1)	< 100 nM
N#Cc1cccnc1N1CCN(C(=O)c2cccc(OC[C@@H]3c4ccccc4CN3c3cn[nH]c(=O)c3C(F)(F)F)c2)CC1	PARP7 (Homo sapiens (Human), UniProt Q7Z3E1)	< 100 nM
N#Cc1ccc(N2CCN(C(=O)C[C@@H]3CC[C@@H]([C@H]4c5ccccc5CN4c4cn[nH]c(=O)c4C(F)(F)F)O3)CC2)nc1 (single isomer, unassigned) [Example 612 Isomer D]	PARP7 (Homo sapiens (Human), UniProt Q7Z3E1)	≥ 1000 nM
C[C@H](COC[C@@H]1CCCN1c1cn[nH]c(=O)c1C(F)(F)F)CC(=O)N1CCN(c2ccc(C#N)cn2)CC1 [Example 128B]	PARP7 (Homo sapiens (Human), UniProt Q7Z3E1)	< 100 nM
CC[C@@H](COCCC(=O)N1CCN(c2ncc(C(F)(F)F)cn2)CC1)Oc1cn[nH]c(=O)c1Br	PARP7 (Homo sapiens (Human), UniProt Q7Z3E1)	< 100 nM
COC[C@@H](COCCC(=O)N1CCN(c2cnc(Cl)cn2)CC1)Oc1cn[nH]c(=O)c1C(F)(F)F	PARP7 (Homo sapiens (Human), UniProt Q7Z3E1)	< 100 nM
O=c1[nH]ncc(N2Cc3nccc(OCCN4CCOCC4)c3C2)c1C(F)(F)F	PARP7 (Homo sapiens (Human), UniProt Q7Z3E1)	100 to 1000 nM
O=C(C[C@@H]1CC[C@@H](COc2cn[nH]c(=O)c2Cl)O1)N1CCN(c2ncc(Cl)cn2)CC1 (single isomer, unassigned) [Example 566 Isomer A]	PARP7 (Homo sapiens (Human), UniProt Q7Z3E1)	≥ 1000 nM
COc1ccc2c(c1)CN(c1cn[nH]c(=O)c1Cl)C2	PARP7 (Homo sapiens (Human), UniProt Q7Z3E1)	100 to 1000 nM

---

Study system: UniProtKB Q7Z3E1
Experimental protocol: Enzymatic assay for inhibition of PARP7: TR-FRET displacement of biotinylated Probe A from the TIPARP active site
Experimental parameters: Table A-1
Test readout: IC50

In [3]: df
Out[3]:
                                    molecule  recorded_value
 0  N#Cc1ccc(N2CCN(C(=O)C34C5C6C3C3C4C5C63COC[C@@H]3CCCN3c3cn[nH]c(=O)c3C(F)(F)F)CC2)nc1 (stereo partly drawn) [Example 479]  100 to 1000 nM
 1  NCc1cc2c(cc1F)CN(c1cn[nH]c(=O)c1C(F)(F)F)C2 [Example 327]  100 to 1000 nM
 2  CN(CC1c2ccccc2CN1c1cn[nH]c(=O)c1C(F)(F)F)c1cccc(C(=O)N2CCN(c3ccc(C#N)cn3)CC2)c1 (stereo not drawn) [Example 343]       ≥ 1000 nM
 3  N#Cc1cnc(N2CCN(C(=O)c3cccc(OC[C@@H]4CCCN4c4cn[nH]c(=O)c4C(F)(F)F)c3)CC2)cn1 [Example 443]        < 100 nM
 4  N#Cc1ccc(N2CCN(C(=O)c3cccc(OCCOCC4CCN(c5cn[nH]c(=O)c5C(F)(F)F)C4)c3)CC2)nc1 (stereo not drawn) [Example 467]        < 100 nM
 5  O=c1[nH]ncc(N2Cc3ccc(OCc4ccncc4)nc3C2)c1C(F)(F)F [Example 321]        < 100 nM
 6  C[C@@H](COCCC(=O)N1CCN(c2ccc(Cl)cn2)CC1)Nc1cn[nH]c(=O)c1C(F)(F)F [Example 563]        < 100 nM
 7  N#Cc1ccc(N2CCN(C(=O)CNCC[C@H]3c4ccccc4CN3c3cn[nH]c(=O)c3C(F)(F)F)CC2)nc1 [Example 144B]  100 to 1000 nM
 8  N#Cc1ccc(N2CCN(C(=O)C[C@@H]3CC[C@H](COc4cn[nH]c(=O)c4C(F)(F)F)O3)CC2)nc1 [Example 580 Isomer D]        < 100 nM
 9  CC(=O)N1CCN(CCOc2cccc3c2CN(c2cn[nH]c(=O)c2C(F)(F)F)C3)CC1 [Example 228]        < 100 nM
10  N#Cc1ccc(N2CCN(C(=O)CCOC[C@@H]3c4ncccc4CN3c3cn[nH]c(=O)c3Cl)CC2)nc1 [Example 431]        < 100 nM
11  O=c1[nH]ncc(N2Cc3cccc(OC4CCNCC4)c3C2)c1Br [Example 172]  100 to 1000 nM
12  N#Cc1ccc(N2CCN(C(=O)[C@H]3C[C@@H](OC[C@H]4CCN(c5cn[nH]c(=O)c5C(F)(F)F)C4)C3)CC2)nc1 [Example 121B]        < 100 nM
13  NC1CCN(c2cccc3c2CN(c2cn[nH]c(=O)c2C(F)(F)F)C3)C1 (stereo not drawn) [Example 306]        < 100 nM
14  O=C(CCOCCNc1cn[nH]c(=O)c1Cl)N1CCN(c2ccc(C(F)(F)F)cn2)CC1 [Example 509]        < 100 nM
